System: COLO 205
Experiment: NCI tumour cell line growth inhibition, 48 h
Activity calls are given as the source filed them. Cut-off read from the data, not from the text of the source: active = GI50 up to about 1.1 µM and inactive = higher.
MEASURED_ENDPOINT: GI50

{"columns": ["MOLECULE", "GI50"],
 "data": [
  ["CCOC(=O)c1nc2ccccc2nc1Oc1cc(OC)c(OC)c(OC)c1", "> 100 µM (inactive)"]
]}

Inquiry: Any idea what GI50 was measured for C=C(c1ccccc1N)[C@@]1(O)C[C@H](/C(=C\C)CO)C[C@@H]1NCc1ccccc1 ?
Reply text: 16.7 µM (inactive)

Inquiry: Any idea what GI50 was measured for CC1(C)O[C@@H]2C[C@H]3[C@@H]4C[C@H](F)C5=CC(=O)C=C[C@]5(C)[C@@]4(F)[C@@H](O)C[C@]3(C)[C@]2(C(=O)CO)O1 [FLUOCINOLONE ACETONIDE] ?
Reply text: > 100 µM (inactive)

Inquiry: Any idea what GI50 was measured for COc1ccccc1C1=C2C(=O)N(C)C(c3ccccc3OC)=C2C(=O)N1C ?
Reply text: > 100 µM (inactive)

----------
Each item that follows carries a reported GI50.
Test system: TK-10
Test: NCI tumour cell line growth inhibition, 48 h
Calls of active or inactive are those of the source. No stated cut-off is given here; in the data, active = GI50 up to about 1.1 µM and inactive = higher.

{"columns": ["COMPOUND", "GI50"],
 "data": [
  ["O=[N+]([O-])c1cccc(/C=N/NC2=CS(=O)(=O)C=C2)c1", "> 100 µM (inactive)"],
  ["C[C@H](N)C(=O)Nc1ccc(-c2nc3ccccc3s2)cc1", "24.5 µM (inactive)"],
  ["O=C(NO)c1ccc(OCc2ccccc2)cc1", "23.7 µM (inactive)"],
  ["O=C(O)C1=C(C(=O)O)N(c2ccncc2)C(c2ccco2)=CC1c1ccccc1[N+](=O)[O-] (stereo unspecified)", "6.01 µM (inactive)"],
  ["COc1cc2c(c(OC)c1OC)C(=O)[C@@H]1[C@H]2N1C(=O)NCCCl", "> 100 µM (inactive)"],
  ["CC12CC3c4ccccc4CN1C3(c1ccccc1)OC2=O (stereo unspecified)", "> 100 µM (inactive)"],
  ["COc1ccc(C=O)c(N(C)C(=O)C(C)(C)C)c1", "> 100 µM (inactive)"],
  ["COc1cccc2c1C(=O)c1c(O)c3c(c(O)c1C2=O)C[C@@](O)(/C(C)=N\\O)C[C@@H]3OC1CC(N)C(O)C(C)O1 (stereo partly specified)", "3.24 µM (inactive)"],
  ["COC1C=CC(O)C(CO)O1 (stereo unspecified)", "> 100 µM (inactive)"],
  ["CCN(CC)CCNC(=O)c1cc2cc(NC(=O)c3cc4cc(N)ccc4[nH]3)ccc2[nH]1", "> 100 µM (inactive)"]
]}

Next compound, please.
Inquiry: Any idea what GI50 was measured for CC12CCCC(O)C1CCC1=CC3(CCC12)SCCS3 (stereo unspecified) ?
Reply text: > 10 µM (inactive)

----------
System: NCI-H226
Assay: NCI tumour cell line growth inhibition, 48 h
Activity calls are given as the source filed them. Cut-off read from the data, not from the text of the source: active = GI50 up to about 1.1 µM and inactive = higher.
Respond only with the outcome that fits, drawn from yes (1) (active), no (0) (inactive)

Would you please look over these solved cases?
{"columns": ["MOLECULE", "MEASUREMENT_TARGET", "LABEL_VALUE"],
 "data": [
  ["CC(NC(=O)c1ccc(Cl)c(Cl)c1)c1ccc(-c2ccccc2)cc1 (centres undefined)", "NCI-H226", "no (0)"],
  ["O=C1C(c2c(O)[nH]c3ccc(S(=O)(=O)O)cc23)=Nc2ccccc21", "NCI-H226", "no (0)"],
  ["CC(=O)c1cc2c(s1)C(=O)c1sccc1C2=O", "NCI-H226", "yes (1)"],
  ["CN(C(=O)c1ccc(OCCCC(=O)O)c(Cl)c1Cl)C1CCCC1", "NCI-H226", "no (0)"],
  ["COC(=O)C1=C(C)NC2(O)C=CC(=O)C3C(=O)N(c4ccccc4)C(=O)C132 (centres undefined)", "NCI-H226", "no (0)"]
]}

Inquiry: Record request — test call for COC(=O)Nc1nc2cc(NS(=O)(=O)c3ccc(F)cc3)ccc2[nH]1
Reply text: no (0)

Inquiry: Record request — test call for O=C1N(c2ccccc2)C2(c3ccccc3)CC3CCCC13S2 (centres undefined)
Reply text: no (0)

Inquiry: Record request — test call for C=C1[C@H](OC(=O)C(C)C)[C@@H](OC(C)=O)[C@@H](OC(C)=O)C(C)(C)[C@@H]2O[C@H]2[C@@H](C)C(=O)[C@@]2(OC(C)=O)C[C@@](C)(OC(C)=O)[C@H](OC(C)=O)[C@@H]2[C@H]1OC(C)=O
Reply text: no (0)

Inquiry: Record request — test call for Cc1cc(S(=O)(=O)O)ccc1/N=N/c1c(O)ccc2ccccc12
Reply text: no (0)

Inquiry: Record request — test call for NNC(=O)/C(=C/c1ccc(Cl)c(Cl)c1)NC(=O)c1ccccc1
Reply text: no (0)

Inquiry: Record request — test call for CC1(C)Cc2c(sc3[nH]c(=S)[nH]c(=S)c23)CS1
Reply text: no (0)

Inquiry: Record request — test call for NCCCN(CCCN)CCc1cn(C(=O)c2ccccc2)cn1
Reply text: no (0)

----------
Test system: U-251
Experiment: NCI tumour cell line growth inhibition, 48 h
Calls of active or inactive are those of the source. Cut-off read from the data, not from the text of the source: active = GI50 up to about 1.1 µM and inactive = higher.
Respond only with the outcome that fits, drawn from t for active, f for inactive

{"columns": ["COMPOUND", "MEASUREMENT_TARGET", "LABEL_VALUE"],
 "data": [
  ["COC(=O)/C=C(/C=C1/C(C#N)=C(N)N(c2ccc(Cl)cc2)C1(C)/C(=C/C(=O)OC)C(=O)OC)C(=O)OC (centres undefined)", "U-251", "f"],
  ["Nc1ncc(N)c(NCC2(CO)CC(CCc3ccccc3)C2)n1 (centres undefined)", "U-251", "f"],
  ["CC1(C)O[C@@H]2C[C@H]3[C@@H]4C[C@H](F)C5=CC(=O)C=C[C@]5(C)[C@@]4(F)[C@@H](O)C[C@]3(C)[C@]2(C(=O)CO)O1 [FLUOCINOLONE ACETONIDE]", "U-251", "f"],
  ["COC(=O)C1CC(C(=O)OC)c2nc3cc([N+](=O)[O-])ccc3nc21 (centres undefined)", "U-251", "f"],
  ["O=c1[nH][nH]c(=O)n1Cc1cccc(Cn2c(=O)[nH][nH]c2=O)c1", "U-251", "f"],
  ["CCCCCCSc1nc(COC(=O)NC)c(COC(=O)NC)n1C", "U-251", "f"],
  ["Nc1ncnc2c1nc(Cl)n2C1OC(CO)C(O)C1O (centres undefined)", "U-251", "f"],
  ["Cc1ccc(S(=O)(=O)N/N=C(/CC(=O)c2c(C)[n+]([O-])c3ccccc3[n+]2[O-])C(=O)Nc2ccccc2C)cc1", "U-251", "f"]
]}

Inquiry: Record request — test call for COc1ccc(/C=C2\CCC(C)C3=C2NC(=S)NC3c2ccc(OC)c(OC)c2)cc1OC (centres undefined)
Reply text: f

Inquiry: Record request — test call for NC(=S)N/N=C1\CCc2ccccc2C1
Reply text: f

Inquiry: Record request — test call for Clc1ccc(OCc2nnc(CCCCCCCCc3nnc(COc4ccc(Cl)cc4Cl)n3Nc3ccccc3)n2Nc2ccccc2)c(Cl)c1
Reply text: f

Inquiry: Record request — test call for COc1ccc2c(ccc3c(COC(=O)NC(C)C)c(COC(=O)NC(C)C)n(C)c32)c1
Reply text: f

Inquiry: Record request — test call for COc1cc2c(c(OC)c1OC)C(=O)[C@@H]1[C@H]2N1C(=O)NCCCl
Reply text: f

Inquiry: Record request — test call for CC(=O)N1CCn2c1nc1cc(Cl)ccc12
Reply text: f

Inquiry: Record request — test call for CC(=O)c1cc2c(s1)C(=O)c1sccc1C2=O
Reply text: t

Inquiry: Record request — test call for COc1ccc(C2=NN(C(=O)COc3ccc(Cl)cc3)C(O)(c3ccc(Cl)cc3)C2)cc1 (centres undefined)
Reply text: f

Inquiry: Record request — test call for O=C1c2ccccc2/C=C\C(c2ccccc2)=N/N1c1ccccc1Cl
Reply text: f

Inquiry: Record request — test call for CC(C)N(C(=O)C12C3C4C1C1C2C3C41C(=O)C(C)(C)C)C(C)C (centres undefined)
Reply text: f

Inquiry: Record request — test call for O=C(O)CCNS(=O)(=O)c1ccc([N+](=O)[O-])cc1
Reply text: f

----------
Tested on: DMS-114
Experiment: NCI tumour cell line growth inhibition, 48 h
The source made the active and inactive calls. No stated cut-off is given here; in the data, active = GI50 up to about 1.1 µM and inactive = higher.
MEASURED_ENDPOINT: GI50

Some solved entries appear below for comparison.
{"columns": ["MOLECULE", "GI50"],
 "data": [
  ["Cc1nn2c(=O)n(-c3cccc(-n4nnc5c(-c6ccccc6)c(C)nn5c4=O)c3C)nnc2c1-c1ccccc1", "13.8 µM (inactive)"],
  ["CCOC(=O)C(C)(c1c(C)[nH]c2ccccc12)c1c(C)[nH]c2ccccc12", "15.7 µM (inactive)"],
  ["CCOc1cccc2ccc[n+](CC)c12", "32.7 µM (inactive)"],
  ["C[N+](C)(C)CC1CCCC/C1=N\\OC(=O)c1ccccc1 (stereo not given)", "> 100 µM (inactive)"]
]}

Next molecule, please.
Inquiry: Any idea what GI50 was measured for COc1ccc(/C=C\c2cc(OC)c(OC(C)=O)c(OC)c2)cc1 ?
Reply text: 4.78 µM (inactive)
